# EXPERIMENT: xn = mol fraction of the nth substance listed, in the solute-free solvent
# ASSAY_CONTEXT: 318.15 K; x2 = 0.1666
VALUE_KIND: solubility (g/100 g solution)

[[record]]
compound = "Nc1cccc(S(=O)(=O)c2cccc(N)c2)c1 + CC(C)O + O"
observed_result = 1.3

[[record]]
compound = "CN1CCN(C2=Nc3cc(Cl)ccc3Nc3ccccc32)CC1 + CC(C)O + O"
observed_result = 0.552

[[record]]
compound = "c1ccc2[nH]c(-c3cscn3)nc2c1 + CC(C)O + O"
observed_result = 0.131

[[record]]
compound = "Nc1nccnc1Cl + CC(C)O + O"
observed_result = 0.824


(A) c1ccc2[nH]c(-c3cscn3)nc2c1 + CCCO + O
(B) Cc1[nH]c(=O)c(C#N)cc1-c1ccncc1 + CC(C)O + O
Which record shows the lower solubility (g/100 g solution): the first, A , or the second, B ? Your answer should be the label attached to the chosen record.
B
(B: 0.0114, A: 0.212)
